# System: NCI-H2110
# Assay explanation: In vitro combination study with tazemetostat, cell proliferation (Cell Titer Glo)
# Assay conditions: 7 days tazemetostat pre-treatment, 6 days co-treatment with second agent
Measurement name: combinatorial effect with tazemetostat (Loewe volume class)

Input line: Sample C[C@]12C=CC(=O)C=C1CC[C@@H]1[C@@H]2[C@@H](O)C[C@@]2(C)[C@H]1CC[C@]2(O)C(=O)CO [Prednisolone, prednisolone] — what was its combinatorial effect with tazemetostat (Loewe volume class)?
Output line: No eff.

Input line: Sample CN(C)C(=O)c1cc2cnc(Nc3ccc(N4CCNCC4)cn3)nc2n1C1CCCC1 [Ribociclib, ribociclib] — what was its combinatorial effect with tazemetostat (Loewe volume class)?
Output line: No eff.

Input line: Sample C[C@]1(c2nc3c(C(N)=O)cccc3[nH]2)CCCN1 [Veliparib, veliparib] — what was its combinatorial effect with tazemetostat (Loewe volume class)?
Output line: No eff.
